tested on: NCI-H441; assay: Antiproliferative activity against human NCI-H441 cells assessed as reduction in cell viability measured after 72 hrs; type: functional, cell-based; conditions: NCI-H441, 72 h
assay-endpoint: IC50

Per the record, C=CC(=O)N1CCCC(n2nc3c(=O)[nH]nc(N)c3c2-c2oc3ccc(C)cc3c2C)C1 (stereo unspecified) has IC50 of > 10 µM

----------
solubility kinetic values, listed per item
assay: Solubility of compound in PBS at pH 7.4 at 1 to 100 microg/ml by laser nephelometry analysis; assay type: physicochemical; settings: dose 1-100 µg/ml
# output: bare number, implied unit µg/mL

Sample answers from the record:
molecule	quantity-unit	endpoint-result
CCC#CC(=O)N1CCC(n2nc3c(=O)[nH]nc(N)c3c2-c2oc3ccc(C)cc3c2C)CC1	µg/mL	1
C=CC(=O)N1CCC(n2nc3c(=O)[nH]nc(N)c3c2-c2oc3cc(C)ccc3c2C)CC1	µg/mL	10
CC#CC(=O)N1CCC(n2nc3c(=O)[nH]nc(N)c3c2-c2oc3ccc(C)cc3c2C)CC1	µg/mL	1
C=CC(=O)N1CCC(Cn2nc3c(=O)[nH]nc(N)c3c2-c2oc3ccc(C)cc3c2C)CC1	µg/mL	10
CN(C)C/C=C/C(=O)Nc1cc2c(Nc3ccc(F)c(Cl)c3)ncnc2cc1O[C@H]1CCOC1 [AFATINIB]	µg/mL	50

Per the record, `C=CC(=O)Nc1ccc(-n2nc3c(=O)[nH]nc(N)c3c2-c2oc3ccc(C)cc3c2C)cc1` has solubility kinetic of 1

Per the record, `C#CC(=O)N1CCC(n2nc3c(=O)[nH]nc(N)c3c2-c2oc3ccc(C)cc3c2C)CC1` has solubility kinetic of 10

Per the record, C=CC(=O)N1CCC[C@@H](n2nc(-c3ccc(Oc4ccccc4)cc3)c3c(N)ncnc32)C1 [IBRUTINIB] has solubility kinetic of 10

Per the record, C=CC(=O)N1CCCC(n2nc3c(=O)[nH]nc(N)c3c2-c2oc3ccc(C)cc3c2C)C1 (centres undefined) has solubility kinetic of 50

----------
test: Half life in CD-1 mouse at 3 mg/kg, po measured after 24 hrs by LC-MS/MS analysis; type: ADME, organism-based; conditions: in vivo
assay-endpoint: half-life (min)
# output: bare number, implied unit min

Per the record, C=CC(=O)N1CCCC(n2nc3c(=O)[nH]nc(N)c3c2-c2oc3ccc(C)cc3c2C)C1 (stereo unspecified) has half-life of 55.9

----------
system: NCI-H1792; assay: Antiproliferative activity against human NCI-H1792 cells assessed as reduction in cell viability measured after 72 hrs; assay type: functional, cell-based; conditions: NCI-H1792, 72 h
pIC50: −log10 of the molar value.
assay-endpoint: pIC50

Per the record, C=CC(=O)N1CCCC(n2nc3c(=O)[nH]nc(N)c3c2-c2oc3ccc(C)cc3c2C)C1 (stereo unspecified) has pIC50 of < 5.00

----------
assay: AUC (0 to t) in CD-1 mouse at 1 mg/kg, iv measured after 24 hrs by LC-MS/MS analysis; type: ADME, organism-based; set-up: time 24 hrs, dose 1 mg/kg, route iv; conditions: in vivo
assay-endpoint: AUC(0-t) at 24 h (ng·h/mL)
# output: bare number, implied unit ng·h/mL

Per the record, C=CC(=O)N1CCCC(n2nc3c(=O)[nH]nc(N)c3c2-c2oc3ccc(C)cc3c2C)C1 (stereo unspecified) has AUC(0-t) at 24 h of 115

----------
system: Hs746T; assay: Antiproliferative activity against human Hs746T cells assessed as reduction in cell viability measured after 72 hrs; format: functional, cell-based
pIC50: −log10 of the molar value.
assay-endpoint: pIC50

pIC50 of C=CC(=O)N1CCCC(n2nc3c(=O)[nH]nc(N)c3c2-c2oc3ccc(C)cc3c2C)C1 (stereo unspecified) , assay on Hs746T, is < 5.00

----------
assay: AUC (0 to t) in CD-1 mouse at 3 mg/kg, po measured after 24 hrs by LC-MS/MS analysis; assay type: ADME, organism-based; design: time 24 hrs, dose 3 mg/kg, route po; settings: in vivo
assay-endpoint: AUC(0-t) at 24 h (ng·h/mL)
# output: bare number, implied unit ng·h/mL

Per the record, C=CC(=O)N1CCCC(n2nc3c(=O)[nH]nc(N)c3c2-c2oc3ccc(C)cc3c2C)C1 (stereo unspecified) has AUC(0-t) at 24 h of 70.2

----------
target: UniProt P11362
pIC50: −log10 of the molar value.
Use satisfied when the recorded pIC50 is no lower than 8; use not satisfied when it is lower.

molecule	label-value
C#CC(=O)N1CCCC(n2nc3c(=O)[nH]nc(N)c3c2-c2oc3ccc(C)cc3c2C)C1 (racemic)	satisfied
CCC#CC(=O)N1CCCC(n2nc3c(=O)[nH]nc(N)c3c2-c2oc3ccc(C)cc3c2C)C1 (racemic)	not satisfied
Cc1ccc2oc(-c3c4c(N)n[nH]c(=O)c4nn3C3CCCN(C(=O)C#CCO)C3)c(C)c2c1 (racemic)	not satisfied
C=CC(=O)N1CCC(n2nc3c(=O)[nH]nc(N)c3c2-c2oc3ccc(Cl)cc3c2C)CC1	satisfied
Cc1ccc2oc(-c3c4c(N)n[nH]c(=O)c4nn3C3CCN(C(=O)C#CCO)CC3)c(C)c2c1	satisfied

Here is the next item to consider.
**Query** Hi team, for CC#CC(=O)N1CCCC(n2nc3c(=O)[nH]nc(N)c3c2-c2oc3ccc(C)cc3c2C)C1 (racemic) , is the recorded pIC50 at or above 8?
**Result** not satisfied

----------
system: BXPC-3; experiment: Antiproliferative activity against human BXPC-3 cells assessed as reduction in cell viability measured after 72 hrs; assay type: functional, cell-based; conditions: BXPC-3, 72 h
pIC50: −log10 of the molar value.
assay-endpoint: pIC50

pIC50 of C=CC(=O)N1CCCC(n2nc3c(=O)[nH]nc(N)c3c2-c2oc3ccc(C)cc3c2C)C1 (stereo unspecified) , assay on BXPC-3, is < 5.00

----------
inhibition values, listed per item
target: UniProtKB P11362; conditions: dose 1.0 nM, time 60.0 min
Sequence (P11362 22-822 limits assumed): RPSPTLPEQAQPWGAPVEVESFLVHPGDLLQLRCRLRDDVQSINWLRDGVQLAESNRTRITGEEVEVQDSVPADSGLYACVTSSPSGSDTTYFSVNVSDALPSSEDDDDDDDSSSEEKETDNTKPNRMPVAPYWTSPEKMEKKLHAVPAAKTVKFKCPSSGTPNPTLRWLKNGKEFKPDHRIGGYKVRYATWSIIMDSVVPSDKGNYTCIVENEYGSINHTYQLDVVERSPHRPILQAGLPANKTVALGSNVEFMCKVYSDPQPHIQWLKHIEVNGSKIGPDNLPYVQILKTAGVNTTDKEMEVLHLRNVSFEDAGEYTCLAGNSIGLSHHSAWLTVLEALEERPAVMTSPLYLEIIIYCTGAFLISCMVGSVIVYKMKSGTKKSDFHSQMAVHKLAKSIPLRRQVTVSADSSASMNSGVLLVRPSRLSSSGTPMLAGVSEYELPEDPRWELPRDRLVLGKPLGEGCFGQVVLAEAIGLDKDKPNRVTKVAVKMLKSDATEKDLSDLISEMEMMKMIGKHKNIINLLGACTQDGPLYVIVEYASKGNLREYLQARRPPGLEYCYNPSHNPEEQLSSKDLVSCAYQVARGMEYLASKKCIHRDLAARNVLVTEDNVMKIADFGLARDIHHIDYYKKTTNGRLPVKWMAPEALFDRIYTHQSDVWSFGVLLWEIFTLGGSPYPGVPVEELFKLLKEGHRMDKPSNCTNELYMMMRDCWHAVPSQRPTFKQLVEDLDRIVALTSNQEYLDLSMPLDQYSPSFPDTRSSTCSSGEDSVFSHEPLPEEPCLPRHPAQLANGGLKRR
# output: bare number, implied unit %

Sample answers from the record:
molecule	quantity-unit	inhibition
C=CC(=O)N[C@H]1CC[C@H](n2nc3c(=O)[nH]nc(N)c3c2-c2oc3ccc(C)cc3c2C)CC1	%	32.4
C=CC(=O)N1CCC(Cn2nc3c(=O)[nH]nc(N)c3c2-c2oc3ccc(C)cc3c2C)CC1	%	29.5
C=CC(=O)N1CCC(n2nc3c(=O)[nH]nc(N)c3c2-c2oc3ccc(C)cc3c2C)CC1	%	14.2

For the next question, use this molecule.
Per the record, C=CC(=O)N1CCCC(n2nc3c(=O)[nH]nc(N)c3c2-c2oc3ccc(C)cc3c2C)C1 (centres undefined) has inhibition of 37.6

----------
assay: Solubility of compound in PBS at pH 7.4; format: physicochemical
assay-endpoint: solubility (µg/mL)
# output: bare number, implied unit µg/mL

Per the record, `C=CC(=O)Nc1ccc(-n2nc3c(=O)[nH]nc(N)c3c2-c2oc3ccc(C)cc3c2C)cc1` has solubility of 1

----------
target: Fibroblast growth factor receptor 2 (Homo sapiens, UniProt P21802, N549H); experiment: Inhibition of human recombinant FGFR2 N549H mutant (456 to 770 residues) using GGEEEEYFELVKK as substrate incubated for 40 mins presence of [gamma-33P]-ATP by radiometric based scintillation counter assay
Sequence (P21802 22-821 N549H limits assumed): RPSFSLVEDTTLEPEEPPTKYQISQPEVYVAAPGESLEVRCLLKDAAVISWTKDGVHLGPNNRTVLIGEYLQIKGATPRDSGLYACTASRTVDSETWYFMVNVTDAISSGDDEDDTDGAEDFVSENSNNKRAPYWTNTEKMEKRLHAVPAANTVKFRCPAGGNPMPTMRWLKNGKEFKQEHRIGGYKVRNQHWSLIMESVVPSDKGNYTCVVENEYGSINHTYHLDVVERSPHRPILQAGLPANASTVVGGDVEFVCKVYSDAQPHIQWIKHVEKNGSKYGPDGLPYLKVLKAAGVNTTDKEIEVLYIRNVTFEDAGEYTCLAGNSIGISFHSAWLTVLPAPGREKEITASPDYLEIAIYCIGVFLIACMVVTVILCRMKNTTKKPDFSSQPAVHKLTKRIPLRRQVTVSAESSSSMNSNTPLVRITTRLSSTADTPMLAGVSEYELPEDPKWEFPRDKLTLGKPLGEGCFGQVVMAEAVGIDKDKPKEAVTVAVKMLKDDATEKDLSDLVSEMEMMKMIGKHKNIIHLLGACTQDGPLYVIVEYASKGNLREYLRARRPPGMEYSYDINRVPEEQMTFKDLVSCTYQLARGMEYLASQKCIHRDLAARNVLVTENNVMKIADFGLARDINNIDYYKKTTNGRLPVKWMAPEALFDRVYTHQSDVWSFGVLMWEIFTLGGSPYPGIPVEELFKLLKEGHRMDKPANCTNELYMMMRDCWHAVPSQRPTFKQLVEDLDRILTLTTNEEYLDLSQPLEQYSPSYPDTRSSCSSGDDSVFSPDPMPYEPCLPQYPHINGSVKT
assay-endpoint: pIC50
Formally, pIC50 is defined as -log10 of the concentration c, with c in mol/L.

Per the record, C=CC(=O)N1CCCC(n2nc3c(=O)[nH]nc(N)c3c2-c2oc3ccc(C)cc3c2C)C1 (stereo unspecified) has pIC50 of 7.80

----------
inhibition values, listed per item
target: UniProt:P11362; conditions: dose 10.0 nM, time 60.0 min
# output: bare number, implied unit %

Sample answers from the record:
compound	target-or-test-system	quantity-unit	endpoint-result
C=CC(=O)N1CCC(n2nc3c(=O)[nH]nc(N)c3c2-c2oc3ccc(C)cc3c2C)CC1	UniProt:P11362	%	78.2
C=CC(=O)N[C@H]1CC[C@H](n2nc3c(=O)[nH]nc(N)c3c2-c2oc3ccc(C)cc3c2C)CC1	UniProt:P11362	%	47.4
C=CC(=O)N1CCCC(n2nc3c(=O)[nH]nc(N)c3c2-c2oc3ccc(C)cc3c2C)C1 (centres undefined)	UniProt:P11362	%	80.9

Per the record, `C=CC(=O)N1CCC(Cn2nc3c(=O)[nH]nc(N)c3c2-c2oc3ccc(C)cc3c2C)CC1` has inhibition of 48.3

----------
experiment: Half life in CD-1 mouse at 1 mg/kg, iv measured after 24 hrs by LC-MS/MS analysis; format: ADME, organism-based; details: in vivo
assay-endpoint: half-life (min)
# output: bare number, implied unit min

Per the record, C=CC(=O)N1CCCC(n2nc3c(=O)[nH]nc(N)c3c2-c2oc3ccc(C)cc3c2C)C1 (stereo unspecified) has half-life of 37.5

# credit: ChEMBL document CHEMBL5247642
